Origin of values: PubChem BioAssay

Each entry below lists one item and its recorded growth inhibition value.
Assay: Restrictive medium S. cerevisiae growth inhibition, OD615, pilot screen of yeast lifespan reduction project, restrictive growth control (AID 706);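 further: modified DeaD lifespan yeast strain shifted to restrictive glucose medium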
Details: OD615, 48 h, at 10 µM, active compounds read high

{"molecule": "Cn1c(=O)c2c(SCC(=O)N3CCN(c4ccccc4)CC3)nc(C3CC3)nc2n(C)c1=O", "growth inhibition [%]": -3.49}
{"molecule": "O=C(c1ccc(CS(=O)(=O)c2ccccc2)o1)N1CCN(c2ncccn2)CC1", "growth inhibition [%]": -5.3}
{"molecule": "CCOC(=O)CN1CC23C=CC(O2)C(C(=O)NC2CCCCCC2)C3C1=O (stereo unspecified)", "growth inhibition [%]": 3.45}
{"molecule": "COc1ccc(CNC(=O)CCCNS(=O)(=O)c2cccc3nonc23)cc1", "growth inhibition [%]": -22.1}
{"molecule": "N#Cc1c(NC(=O)c2cc(C3CC3)on2)sc2c1CCC2", "growth inhibition [%]": 5.11}
{"molecule": "Cc1ccc(CNC(=O)c2ccc(Br)o2)cc1", "growth inhibition [%]": -1.29}
{"molecule": "Nc1ccc(-c2nc3ccc(N)cc3o2)cc1", "growth inhibition [%]": 7.21}
{"molecule": "COc1cccc(C(=O)NCC(c2cccnc2)N2CCN(c3ccccc3OC)CC2)c1 (stereo unspecified)", "growth inhibition [%]": -13.1}
{"molecule": "O=C(Nc1nc(-c2ccccn2)cs1)c1ccc(Cl)s1", "growth inhibition [%]": 96.8}
{"molecule": "CCN1CCN(C(c2cccs2)C(C)NC(=O)C(C)C)CC1 (stereo unspecified)", "growth inhibition [%]": 2.65}
{"molecule": "CC(=NCCN1CCOCC1)C1=C(O)c2ccccc2C1=O", "growth inhibition [%]": -12.6}

---

Test: Restrictive medium S. cerevisiae growth inhibition, OD615, pilot screen of yeast lifespan reduction project, restrictive growth control (AID 706);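 further: modified DeaD lifespan yeast strain shifted to restrictive glucose medium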
Settings: OD615, 48 h, at 10 µM, active compounds read high
Active and inactive are the calls of the source.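 Rule for the calls: active = growth inhibition above a set limit, 3 SD over mean compound inhibition, in both replicates (cut at about 43% in these data); inconclusive = above the limit in only one replicate; inactive = at or below the limit in both replicates.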

{"compound": "CC1(C)CC(=O)c2sc(NC(=O)c3ccco3)nc2C1", "growth inhibition": "-0.525% (inactive)"}
{"compound": "O=C(c1c(Cl)nc2sccn12)N1CCCc2ccccc21", "growth inhibition": "-6.31% (inactive)"}
{"compound": "Clc1ccc(C2CC(c3cccs3)n3ncnc3N2)cc1Cl (stereo unspecified)", "growth inhibition": "29.1% (inactive)"}
{"compound": "CCCCCn1c(CNC(C)=O)nc2ccccc21", "growth inhibition": "-13.2% (inactive)"}
{"compound": "Cc1cccc(OCC2=N/C(=C\\N(C)C)C(=O)O2)c1", "growth inhibition": "-9.04% (inactive)"}
{"compound": "CC(C)C(C(=O)NC(C)(C)C)N1C(=O)c2ccccc2C1=O (stereo unspecified)", "growth inhibition": "0.73% (inactive)"}

---

Experiment: growth suppression of PTEN-deleted HCT116, pilot screen, cell-based, HCT116 clonal line, CellTiter-Glo (AID 824);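 further: 0% = 20 µM Hyamine control and 100% = vehicle cell control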
Settings: 60 h, at 10 µM
Inconclusive results are not listed. Activity calls are given as the source filed them.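 Rule for the calls: active = viability at or below 27.92% in each of two runs, the all-compound median minus 4 SD; inconclusive = no clear call, values can overlap the other calls; inactive = the rest.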
Labels: true for active, false for inactive

{"molecule": "COc1ccc(-c2nnc(SCC(=O)NC3CCCCC3)o2)cc1OC", "category": "false"}
{"molecule": "O=C(Cn1ncc2c1-c1ccccc1OC2)N1CCN(Cc2ccc3c(c2)OCO3)CC1", "category": "false"}
{"molecule": "CCCCNc1ncnc2c1cnn2-c1ccc(Cl)cc1", "category": "true"}
{"molecule": "CCCc1cc(C(=O)Nc2cccc(Cl)c2)no1", "category": "false"}
{"molecule": "CCc1nc(SCC(=O)Nc2ccc(C(=O)O)cc2)n[nH]1", "category": "false"}
{"molecule": "O=C(c1ccco1)c1cn[nH]c1-c1ccc(Cl)cc1O", "category": "false"}
{"molecule": "CCOC(=O)c1ccc(N2C(=O)CC(SCC(N)C(=O)OCC)C2=O)cc1 (stereo not drawn)", "category": "false"}
{"molecule": "COc1cccc(C2N(c3ccc(Cl)cc3)C(=O)C3CCCN32)c1 (stereo not drawn)", "category": "false"}
{"molecule": "Cc1cc2cc(CNC(=O)c3ccc(Br)o3)ccc2[nH]1", "category": "false"}
{"molecule": "O=C(C1CCC(=O)N1Cc1cccnc1)N1CCN(c2ccc(F)cc2)CC1 (stereo not drawn)", "category": "false"}
{"molecule": "CC(CNC(=O)c1ccc(Br)o1)NC(=O)c1ccc(Br)o1 (stereo not drawn)", "category": "false"}
{"molecule": "CCOC(=O)C1CCN(C(=O)COc2cc(C)c(Br)c(C)c2)CC1", "category": "false"}
{"molecule": "CC1=C(C(=O)OC(C)C)C(c2cccnc2)n2ncnc2N1 (stereo not drawn)", "category": "false"}
{"molecule": "Cn1c(=O)c2c(nc(-n3ccnc3)n2Cc2ccc(Cl)cc2Cl)n(C)c1=O", "category": "false"}
{"molecule": "Cc1cccc(C2CC(c3ccc(F)cc3)Nc3nc(N)nn32)c1 (stereo not drawn)", "category": "false"}
{"molecule": "c1ccc2c(c1)CCN(CCCNc1nc3ccccc3n3cnnc13)C2", "category": "false"}
{"molecule": "CCC(=O)Nc1c(OC(=O)CC)ccc2c(C)cc(=O)oc12", "category": "false"}
{"molecule": "CN(C)C=NC(=O)/C(C#N)=C1\\CCc2ccccc2N1", "category": "false"}
{"molecule": "CCSCCOC(=O)C1=C(C)NC(=O)NC1c1cc(OC)ccc1OC (stereo not drawn)", "category": "false"}
{"molecule": "COCC(=O)Nc1ccc(C(N)=O)cc1", "category": "false"}
{"molecule": "Cc1ccc(C(=O)N(Cc2nc(-c3ccc(C)cc3)no2)C(C)C)cc1", "category": "false"}
{"molecule": "COc1ccc(NC(=O)[C@H](CCS(C)(=O)=O)N2Cc3ccccc3C2=O)c(OC)c1", "category": "false"}
{"molecule": "COCCNC(=O)C1CCN(S(=O)(=O)c2ccccc2)CC1", "category": "false"}

---

Assay: OD615 S. cerevisiae growth inhibition, permissive medium, pilot counter-assay, permissive growth control for S. cerevisiae lifespan shortening project (AID 705)
Conditions: OD615, 24 h, at 10 µM, active compounds read high

{"compound": "COc1ccc(NC2=CC(=O)CC(C)(C)C2)cc1OC", "unit abbrev": "%", "growth inhibition": -5.52}
{"compound": "Nc1ccc(Nc2ccccc2)c(Cl)c1", "unit abbrev": "%", "growth inhibition": -1.62}
{"compound": "Cc1c(C(=O)NCCCN2CCOCC2)sc2nc(-c3ccccc3)cn12", "unit abbrev": "%", "growth inhibition": -10.7}
{"compound": "CC(=O)CSc1nc2ccc(Nc3nc(N4CCOCC4)nc(N4CCOCC4)n3)cc2s1", "unit abbrev": "%", "growth inhibition": 15.1}
{"compound": "c1nnc2c3c4c(sc3ncn12)CCC4", "unit abbrev": "%", "growth inhibition": -1.74}
{"compound": "CCCCSC1=C(C#N)C(c2ccccc2C)CC(=O)N1 (centres undefined)", "unit abbrev": "%", "growth inhibition": -14.2}
{"compound": "O=C(Nc1ccc2ccccc2c1)c1cccnc1", "unit abbrev": "%", "growth inhibition": -3.92}
{"compound": "COc1ccc(C2C(C(N)=O)=C(C)Nc3nc(-c4ccccc4)nn32)cc1OC (centres undefined)", "unit abbrev": "%", "growth inhibition": -4.7}
{"compound": "CCOC(=O)C1=C(C)Nc2nc(C)nn2C1c1cc(OC)ccc1OC (centres undefined)", "unit abbrev": "%", "growth inhibition": 3.21}
{"compound": "C=CCOC(=O)C1=C(C)N=C2SCCC(=O)N2C1c1ccc(OC(=O)c2ccco2)cc1 (centres undefined)", "unit abbrev": "%", "growth inhibition": 5.35}
{"compound": "CCOC(=O)N1CCN(C(=O)Cc2ccc(Cl)cc2)CC1", "unit abbrev": "%", "growth inhibition": 3.9}
{"compound": "COc1ccc(N2C(=O)C3CCCN3C2c2ccc(Cl)cc2)cc1 (centres undefined)", "unit abbrev": "%", "growth inhibition": -6.21}
{"compound": "Cn1c(CSc2nc3ccccc3s2)n[nH]c1=S", "unit abbrev": "%", "growth inhibition": -6.41}
{"compound": "COc1cccc(NC(=O)CN2C(=O)COc3ccc(Cl)cc32)c1", "unit abbrev": "%", "growth inhibition": -12.2}
{"compound": "O=C(CCS(=O)(=O)c1cccc2nonc12)NCCc1ccccc1Cl", "unit abbrev": "%", "growth inhibition": -1.5}
{"compound": "CCOc1ccccc1Nc1nnc(Cc2ccccc2Cl)c(=O)[nH]1", "unit abbrev": "%", "growth inhibition": -24.5}
{"compound": "CCOc1ccccc1CNS(=O)(=O)c1ccc2c(c1)oc(=O)n2C", "unit abbrev": "%", "growth inhibition": -8.67}
{"compound": "O=C(O)COc1ccc2c(c1)OCCO2", "unit abbrev": "%", "growth inhibition": -7.81}
{"compound": "CCCCSc1nc(N)c(NC(=O)c2ccco2)c(=O)[nH]1", "unit abbrev": "%", "growth inhibition": -12.7}
{"compound": "CC(C)CC(=O)Nc1ccc2oc(-c3cccnc3)nc2c1", "unit abbrev": "%", "growth inhibition": 2.48}
{"compound": "CN1/C(=C/C=N/n2cnnc2)C(C)(C)c2ccccc21", "unit abbrev": "%", "growth inhibition": -6.3}
{"compound": "CN(Cc1ccccc1)C(=O)CCC(=O)N(C)Cc1ccccc1", "unit abbrev": "%", "growth inhibition": -1.99}
{"compound": "COc1ccc(C(=O)c2coc3ccc(O)c(CN4CCOCC4)c23)cc1", "unit abbrev": "%", "growth inhibition": -5.46}
{"compound": "Cc1cc(NC(=O)CSc2cn(C)c3ccccc23)no1", "unit abbrev": "%", "growth inhibition": -8.73}
